Property: inhibition; scope: individual compounds
experiment_notes: inhibitors of TNFa-induced NFkB p65 translocation, primary screen, imaging, HUVEC, MLSMR starter and 10KST1 sets (AID 438);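 also: compound added about 3h40 before a 20 min TNFalpha stimulation; signal is the nuclear over cytoplasmic p65 intensity ratio per well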
experimental_conditions: HUVEC TNFa-induced p65 nuclear translocation; at 2 µM, stronger effect = higher value, 0% TNFa-plus-vehicle, 100% no-TNFa wells
Calls of active or inactive are those of the source.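 The calls were made as follows: active = inhibition above 20% together with a positive visual image hit; inconclusive = visual image hit but inhibition not above 20%; inactive = no visual image hit.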

// solved cases for inhibition follow
C=COCCNC(=O)Nc1ccc(Cl)c(Cl)c1; -7% (inactive)
CC(C)CNS(=O)(=O)c1ccc(OCC(=O)Nc2ccc3c(c2)OCO3)c(Cl)c1; -12.1% (inactive)
CS(=O)(=O)N1CCN(c2ccccc2NC(=O)c2ccc(-c3ccc(Cl)cc3Cl)o2)CC1; -3.5% (inactive)
O=C(CSc1nnnn1-c1ccccc1Cl)Nc1ccc2c(c1)OCCO2; -3.4% (inactive)
CN(C)c1cccc2c(S(=O)(=O)N3CCOCC3)cccc12; -7.5% (inactive)

In the following, a different compound is considered.
**Query** Which inhibition value belongs to O=C1CCC(=O)N1c1nc2n(n1)C(c1ccccc1)C=C(c1ccc(Br)cc1)N2 (stereo unspecified) ?
**Result** 3% (inactive)

----------
experiment_notes: inhibitors of mutant huntingtin aggregation, primary screen, imaging, exon1htt(103Q)mCFP cells, high-content imaging (AID 483);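 also: compound exposure lasted 3 days before fixation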;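 as to nuclei count: percent of the per-plate median nuclei count of sample wells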
experimental_conditions: exon1htt(103Q)mCFP cell line, aggregate imaging, at 2 µM; measured here: cell count, toxicity
measurement_type: nuclei count (%)
Kindly answer with a numeric value in %, unit omitted.

# example entries with known answers
CCN(CC)CCCNC(=O)c1nn(-c2ccc(OC)cc2OC)c(=O)c2ccccc12; 106
O=C(NCc1ccccc1)c1cc(-c2ccco2)on1; 102
CC1(C)NC(=O)N(CCOc2cccc(Cl)c2Cl)C1=O; 98
O=C(Cn1ncc2c(=O)oc3ccccc3c21)NCC1CCCO1 (stereo unspecified); 111
Cc1noc(C)c1S(=O)(=O)N1CCCC(C(=O)NCCc2ccc(Cl)cc2)C1 (stereo unspecified); 107

**Query** Any idea what nuclei count was measured for `COc1cc2c(cc1OC)-c1cc(Nc3ccc4c(c3)OCCO4)nc(=O)n1CC2` ?
**Result** 104

**Query** Entry `O=C(CSc1nnc(C2CC2)n1Cc1ccccc1)c1ccc(S(=O)(=O)N2CCOCC2)cc1` please
**Result** 96.7

**Query** Now consider `COc1cccc(-c2nc(CS(=O)(=O)CC(=O)N3CCc4ccccc4C3)c(C)o2)c1` .
**Result** 93

**Query** Field entry: `CC(C)Cn1c(N)c(C(=O)COC(=O)c2ccc3c(c2)OCCO3)c(=O)n(C)c1=O`
**Result** 75.7

**Query** Would you kindly repeat that for O=C(NC1CC1)C1CCC(=O)N1C1CCCC1 (stereo unspecified) ?
**Result** 119

**Query** Same question, `CCN(C(=O)c1c(OC)cccc1OC)c1nnc(-c2cccnc2)s1` this time
**Result** 105

----------
Here the recorded z-score is given for each entry.
experiment_notes: DUSP6 inhibitors restoring Erk phosphorylation by chemical complementation, primary imaging in DUSP6-transfected HeLa (AID 609)
experimental_conditions: HeLa MKP-3 transfected, phospho-Erk imaging KS statistic; measured here: cell density z-score; at 10 µM; cells stimulated with TPA for 15 min
Answer with a bare number; do not write a unit.

CN(C)CCCOC(=O)c1ccc(Cl)cc1Cl; -3.39
N#Cc1nc(COc2ccccc2)oc1N1CCCC1; -0.447
Cc1ccc(NC(=O)Cn2nc(C)c3ccccc3c2=O)cc1; 1

**Query** I have this compound here, `CCSc1nc2sc3c(c2c(=O)n1C1CCCCC1)CCN(C)C3` , and I need its recorded z-score.
**Result** -0.995

**Query** Then `COc1ccc(Nc2nnc(C)c3ccccc23)cc1C(N)=O` ?
**Result** -0.473

**Query** Param item: CCCOc1ccc(C2/C(=C(/O)c3ccccc3)C(=O)C(=O)N2CCCN(C)C)cc1OC (stereo unspecified)
**Result** 0.261

----------
experiment_notes: inhibitors of mutant huntingtin aggregation, primary screen, imaging, exon1htt(103Q)mCFP cells, high-content imaging (AID 483);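 also: compound exposure lasted 3 days before fixation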;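 as to nuclei count: percent of the per-plate median nuclei count of sample wells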
experimental_conditions: exon1htt(103Q)mCFP cell line, aggregate imaging, at 2 µM; measured here: cell count, toxicity
Entries and their nuclei count
Please state the figure in %; there is no need to write the unit.

COc1ccccc1S(=O)(=O)Cc1ccc(C(=O)NCCN2CCCCCC2)o1; 91.6
CCOc1ccc(N2C(=O)CC(N3CC(C)OC(C)C3)C2=O)cc1 (stereo unspecified); 104
c1cn(CC2(Cn3ccnc3)COC2)cn1; 104
COc1ccccc1CN1CCCC(C(=O)N(C)Cc2ccccc2)C1 (stereo unspecified); 99.1
O=C(CN1C(=O)COc2ccccc21)N(Cc1cccnc1)Cc1ccccc1F; 77.4

**Query** Name the recorded nuclei count for `O=C(CSc1nnc(CNC(=O)c2c(F)cccc2Cl)o1)c1ccccc1` .
**Result** 100

**Query** For `COc1ccc(OC)c(C(=O)c2coc3ccc(O)c(CN4CCOCC4)c23)c1` then?
**Result** 120

**Query** Repeat with `O=c1oc2c3c4c(cc2s1)CCCN4CCC3`
**Result** 100

**Query** And CC(C)C(NC(=O)c1ccccc1NC(=O)c1ccco1)C(=O)O (stereo unspecified) ?
**Result** 103

**Query** Follow-up item: `CCN1CCN(C(=O)c2oc(=O)c3ccccc3c2-c2ccc(C)cc2)CC1`
**Result** 94.3

**Query** Record: `CCCCOCCCNC(=O)c1ccc(NC(C)=O)cc1`
**Result** 99.3

**Query** Okay, and `CN(C(=O)c1ccc2c(=O)n3c(nc2c1)CCCCC3)c1ccccc1` ?
**Result** 93.9

**Query** // next record `O=C(CNC1CCCCCC1)Nc1ccc(S(=O)(=O)NC2CC2)cc1`
**Result** 104

**Query** Try COC(=O)C1(C#N)C(c2ccccc2)C1(C(=O)OC)C(=O)OC (stereo unspecified) next.
**Result** 103

**Query** For `CC(=O)OCCNc1cc(N2CCN(C)CC2)c2noc3c2c1C(=O)c1ccccc1-3` then?
**Result** 114

**Query** Consider next the compound COC(=O)Nc1sc2c(c1C(=O)N1CCOCC1)CCC(C)C2 (stereo unspecified) in the same way.
**Result** 118

**Query** Now give it for CCOC(=O)c1cc(C)sc1N1C(=O)C2C3C=CC(C3)C2C1=O (stereo unspecified) too.
**Result** 97.5

**Query** Try the compound `CCCN(CCC)S(=O)(=O)c1ccc(NS(C)(=O)=O)cc1`
**Result** 108

----------
Let's look at some molecules and their measured nuclei count.
experiment_notes: inhibitors of mutant huntingtin aggregation, primary screen, imaging, exon1htt(103Q)mCFP cells, high-content imaging (AID 483);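 also: compound exposure lasted 3 days before fixation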;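 as to nuclei count: percent of the per-plate median nuclei count of sample wells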
experimental_conditions: exon1htt(103Q)mCFP cell line, aggregate imaging, at 2 µM; measured here: cell count, toxicity
Please state the figure in %; there is no need to write the unit.

Cc1cccc(CN2CCC(CNC(=O)C3CCCN(S(=O)(=O)c4cnc[nH]4)C3)CC2)c1 (stereo unspecified); 106
CCC(C)NC(=O)C1c2cc(OC)c(OC)cc2C(=O)N(C)C1c1ccc(OC)cc1 (stereo unspecified); 100

**Query** GET /values?readout=nuclei count&item= CCOC(=O)C1(c2ccccc2)NC(c2ccc(N(C)C)cc2)C2C(=O)N(C)C(=O)C21 (stereo unspecified)
**Result** 116

**Query** Now give it for `O=c1c2cc(N3CCOCC3)ccc2[nH]c(=S)n1CCCN1CCCC1` too.
**Result** 105

**Query** Try this molecule next: Cc1ccc(N2CCN(c3ccc(C)cc3)C(CC(=O)O)C2=O)cc1 (stereo unspecified)
**Result** 92.3

**Query** Continue with COc1cc(NC2c3ccccc3C(=O)N2c2ccc(C)cn2)cc(OC)c1OC (stereo unspecified)
**Result** 85.2

**Query** Input `Cc1ccc2[nH]c3c(c2c1)CCc1cn[nH]c1-3`
**Result** 71.7

**Query** And what about the molecule COc1ccc(N2CC(C(=O)Nc3ccc(F)cc3F)CC2=O)cc1 (stereo unspecified) ?
**Result** 111

**Query** Again, but for CC1CN=C(N(C(=O)Nc2ccccc2)c2ccc(S(=O)(=O)N3CCOCC3)cc2)S1 (stereo unspecified)
**Result** 95.4

**Query** Also `Cc1cc(NS(=O)(=O)c2ccccc2)no1` ?
**Result** 97

**Query** Repeat with CC1(CC(=O)O)C(=O)N=C2C=CC=CN21 (stereo unspecified)
**Result** 77.5

----------
compounds and their reported inhibition of aggregation
experiment_notes: inhibitors of mutant huntingtin aggregation, primary screen, imaging, exon1htt(103Q)mCFP cells, high-content imaging (AID 483);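 also: compound exposure lasted 3 days before fixation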
experimental_conditions: exon1htt(103Q)mCFP cell line, aggregate imaging, at 2 µM; stronger effect = higher value
Write it as a number; the unit % goes unstated.

# example entries with known answers
O=C(C1CCCCC1)N1CCC(c2nc3c(nnn3Cc3ccccc3Cl)c(=O)[nH]2)CC1; -5.2
CCC1CCCCN1C(=O)CSc1nnc(-c2ccco2)o1 (configuration not stated); -17.6
O=C(c1ccco1)N1CCN(C(=O)c2sccc2-c2ccccc2)CC1; 7.1
CCN(CC)CCCNC(=O)c1nn(-c2ccc(OC)cc2OC)c(=O)c2ccccc12; -6.3
CN(C)C(=O)N1CCC(C(=O)NC2CCCCCCC2)CC1; 36.8
CCn1c(SCC(=O)c2ccc(F)cc2)nnc1-c1ccoc1C; -1.3
COc1ccc(CCNc2oc(COc3ccc(F)cc3)nc2C#N)cc1; 8.7
O=C(NCC(c1cccnc1)N1CCN(c2ccccc2)CC1)c1ccc2c(c1)OCO2 (configuration not stated); 25.6
Cc1nc(N2CCc3ccccc32)[nH]c(=O)c1CCC(C)C; -19.6
Cc1cc(C)n(-c2nc3c(c(=O)n(Cc4ccc(Cl)c(Cl)c4)c(=O)n3C)n2C)n1; 1.2

**Query** Requested field: inhibition of aggregation. Item: `Cc1cc(NS(=O)(=O)Cc2ccccc2)cc(C)c1OCC(=O)N1CCOCC1`
**Result** -14.1

**Query** And the next one, CCOCCCNC(=O)CC1Oc2ccc(C)cc2NC1=O (configuration not stated) ?
**Result** 8.5

**Query** `CCOC(=O)CSc1nnc(NC(=O)c2cccc(S(=O)(=O)N3CCCCC3)c2)s1` ?
**Result** -6.5

**Query** Proceed to `O=C(COC(=O)c1cncc(Br)c1)NCCC1=CCCCC1`
**Result** 6

**Query** Consider next the compound CCC(C)(C)n1nnnc1C(c1ccncc1)N1CCN(c2cccc(OC)c2)CC1 (configuration not stated) in the same way.
**Result** -2.6

**Query** Now give it for C=CCc1cc(OC)ccc1OCC(O)CN1CCN(c2ccc(OC)cc2)CC1 (configuration not stated) too.
**Result** 1.9

**Query** Cool, now CC1CN(c2nc(-c3ccccc3)nc3ccccc23)CC(C)O1 (configuration not stated)
**Result** -1.5

**Query** What do you have for `Cc1ccc2oc(-c3ccccc3C(=O)O)cc(=O)c2c1` ?
**Result** 2.4

**Query** Please do the same for COC(=O)C(O)(CC(=O)c1ccc(OC)cc1)C(F)(F)F (configuration not stated) as well.
**Result** 4.5

**Query** And for CCOC(=O)c1c(C)oc2c1c(C(c1ccncc1)N1CCOCC1)c(O)c1ccccc12 (configuration not stated) ?
**Result** -6.4

**Query** Also need Cc1ccc(-c2noc(-c3ccccc3C(=O)NCC3CCCO3)n2)cc1 (configuration not stated) , thanks.
**Result** -9

**Query** Thanks! And `COc1cccc2cc(C(=O)N3CCN(c4ccc(C)cc4C)CC3)c(=O)oc12` ?
**Result** -43.1

Where do the numbers come from? From PubChem BioAssay.
